molecular target: Dimer of Gag-Pol polyprotein [489-587] (Human immunodeficiency virus 1, UniProt P12497); construct: 489-587; test: Protease Inhibition Assay; settings: pH 4.7; 37 °C
pIC50: −log10 of the molar value.
Label condition met when pIC50 is at or above 5; anything below gets condition not met.

>>> qualitative_label("O=c1oc2ccccc2c(O)c1Cc1ccccc1 [3-benzyl-4-hydroxy-2H-chromen-2-one]")
"condition not met"
>>> qualitative_label("O=C(CCCCC1CCCCC1)OCC(O)C1OC(=O)C(O)C1=O (stereo unspecified)")
"condition not met"
>>> qualitative_label("Cc1cccc(-c2cc(O)c(Sc3ccccc3C(C)(C)C)c(=O)o2)c1")
"condition met"
>>> qualitative_label("O=c1oc(-c2ccccc2)cc(O)c1Sc1ccccc1")
"condition met"
>>> qualitative_label("O=C(O)c1cc(-c2ccc(Cl)cc2)nc2cc(O)ccc12")
"condition met"

For the next question, use this compound.
Given O=C(O)COc1ccc(-c2cc(O)c(SCCc3ccccc3)c(=O)o2)cc1 , state whether its pIC50 is at least 5.
condition met

====

Target: Dimer of Gag-Pol polyprotein [489-587] (Human immunodeficiency virus 1)
Construct: 489-587
Test: Protease Inhibition Assay
Settings: pH 4.7; 37 °C
Protocol: For determination of IC50 values, HIV-1 protease was added to assay buffer containing inhibitor and the substrate (H-His-Lys-Ala-Arg-Val-Leu- (p-NO2) Phe-Glu-Ala-norleucine-Ser-NH2). The Leu- (p-NO2) Phe bond of the substrate was cleaved by the enzyme, and the substrate and products were separated by reversed-phase HPLC. Absorbance was measured at 220 nm, peak areas were determined, and percentage conversion to product was calculated.
Recorded log10 of IC50, one value per entry.
Remember, log10 of IC50, in µM.

Observe how each entry below is paired with its result.
>>> experimental_value("O=c1oc(-c2ccccc2)cc(O)c1SCCc1ccccc1")
0.11
>>> experimental_value("O=C(CCc1ccc(Br)cc1)c1ccc(CC(=O)c2ccccc2-c2ccccc2C(=O)O)cc1")
1.28
>>> experimental_value("O=c1cc(Cc2cccc(Cl)c2)[nH][nH]1")
1.46
>>> experimental_value("O=C(O)c1cc(O)c(O)cc1C(=O)c1cc(Cl)ccc1Cl")
0.91

So, Cc1ccccc1Sc1c(O)cc(-c2ccccc2)oc1=O ? Its log10 of IC50 was -0.38

Data provenance: BindingDB's records for doi:10.1016/0968-0896(96)00134-4
